# Tested on: passive cutaneous anaphylaxis
# Assay notes: PCA test on the rat, oral administration before challenge with antigen
# Type: in vivo, rat (male Sprague Dawley)
# Study conditions: Rattus norvegicus, po, 30 mg/kg, 5 minutes before challenge; read-out: inhibition (%)
Categories are assigned from the measured inhibition in vivo at 30 mg/kg using these intervals: bin 0: < 40%; bin 1: ≥ 40% and < 50%; bin 2: ≥ 50%

// below: answered compounds
{"Compound": "O=C(/C=C/c1ccc[nH]1)Nc1nn[nH]n1 [VAL 47-078]", "Target or test system": "passive cutaneous anaphylaxis", "Discrete label": "bin 0"}
{"Compound": "O=C(/C=C/c1ccncc1)Nc1nn[nH]n1 [VAL 47-042]", "Target or test system": "passive cutaneous anaphylaxis", "Discrete label": "bin 0"}
{"Compound": "Cc1ccc(/C=C/C(=O)Nc2nn[nH]n2)s1 [VAL 47-005]", "Target or test system": "passive cutaneous anaphylaxis", "Discrete label": "bin 2"}
{"Compound": "O=C(/C=C/c1cccnc1)Nc1nn[nH]n1 [VAL 47-017]", "Target or test system": "passive cutaneous anaphylaxis", "Discrete label": "bin 1"}
{"Compound": "O=C(/C=C/c1ccc(Br)s1)Nc1nn[nH]n1 [VAL 47-008]", "Target or test system": "passive cutaneous anaphylaxis", "Discrete label": "bin 1"}
{"Compound": "O=C(/C=C/c1ccco1)Nc1nn[nH]n1 [VAL 47-010]", "Target or test system": "passive cutaneous anaphylaxis", "Discrete label": "bin 2"}
{"Compound": "O=C(/C=C/c1cccs1)Nc1nn[nH]n1 [VAL 47-024]", "Target or test system": "passive cutaneous anaphylaxis", "Discrete label": "bin 2"}
{"Compound": "O=C(/C=C/c1ccsc1)Nc1nn[nH]n1 [VAL 47-034]", "Target or test system": "passive cutaneous anaphylaxis", "Discrete label": "bin 2"}

Switching to the query record.
### Prompt Class? Entry: O=C(/C=C/c1ccccn1)Nc1nn[nH]n1 [VAL 47-055]
### Response bin 2

Cited source for all entries: patent US5039684A
